Data origin: patent US20230220053A1

target: S1-Fc (SARS-CoV-2 S1 protein, Fc fusion) (SARS-CoV-2, UniProt P0DTC2 16-685); experiment: SPR (Biacore T200), S1 captured on anti-human Fc chip, scFv injected
experimental readout: koff (s⁻¹)
Answers are plain numbers, in s⁻¹.

// below: answered binders
binder: 2020EP71-E04 scFv (scFv) scFv: QVQLVQSGGGVVQPGRSLRLSCAASGFTFSSYGMHWVRQAPGKGLEWVAVISYDGSNKYYADSVKGRFTISRDNSKNTLYLQMNSLRAEDTAVYYCAKDRAYYYGYYYYYYGMDVWGQGTTVTVSSGGGGSGGGGSGGGGSQSVLTQPPSVSGAPGQRVTISCTGSSSNIGAGYDVHWYQQLPGTAPKLLIYGNSNRPSGVPDRFSGSKSGTSASLAITGLQAEDEADYYCATWDDSLSGPVFGGGTKVTVL
unit text: s⁻¹
koff: 0.0019

binder: 2020EP66-A07 scFv (scFv) scFv: EVQLVQSGAEVKKPGSSVKVSCKASGGTFSSYAISWVRQAPGQGLEWMGGIIPIFGTANYAQKFQGRVTITADESTSTAYMELSSLRSEDTAVYYCASGGDGYNYDYYYYGMDVWGQGTTVTVSSGGGGSGGGGSGGGGSSYELTQPPSVSVSPGQTATITCSGEKLGDKYSFWYQQKPGQSPVMVMYQDDQRPSGTPERFSGSNSGNTATLTISGTRATDEADYYCQAWDNSASVFGSGTKLTVL
unit text: s⁻¹
koff: 0.00142

Form field koff, entry 2020EP54-H01 scFv (scFv, also called 2020EP054-H01) scFv: QVQLVESGGGVVQPGRSLRLSCAASGFTFSSYGMHWVRQAPGKGLEWVAVISYDGSNKYYADSVKGRFTISRDNSKNTLYLQMNSLRAEDTAVYYCAKGRGWYLDYWGQGTLVTVSSGGGGSGGGGSGGGGSNFMLTQPPSVSVSPGQTASITCSGDKLGDKYACWYQQKPGQSPVLVMYEDYKRPSGIPARFSGSNSGNTATLTISRVEGGDEGDYYCQVWDSRGPEVIFGGGTKLTVL : 0.0052
